Where do these numbers come from? They come from BindingDB's records for PubMed 8510008.

pKi: −log10 of the molar value.
# collection of pKi values tested on 5-hydroxytryptamine receptor 2A (Sus scrofa, UniProt P50129)
# Sequence (P50129 whole entry): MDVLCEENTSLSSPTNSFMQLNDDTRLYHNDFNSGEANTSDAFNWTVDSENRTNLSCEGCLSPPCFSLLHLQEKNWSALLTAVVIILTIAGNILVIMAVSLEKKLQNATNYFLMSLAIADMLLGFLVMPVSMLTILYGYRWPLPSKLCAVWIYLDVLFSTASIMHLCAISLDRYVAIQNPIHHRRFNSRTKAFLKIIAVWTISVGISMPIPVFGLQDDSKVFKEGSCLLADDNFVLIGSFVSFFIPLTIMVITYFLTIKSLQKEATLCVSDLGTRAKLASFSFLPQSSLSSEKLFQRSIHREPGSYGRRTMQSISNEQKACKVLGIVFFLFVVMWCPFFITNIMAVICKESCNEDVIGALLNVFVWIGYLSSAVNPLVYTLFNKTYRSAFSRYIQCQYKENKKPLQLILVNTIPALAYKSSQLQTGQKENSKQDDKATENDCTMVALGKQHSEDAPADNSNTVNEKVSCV

Compound	pKi
CN1C[C@@H](NS(=O)(=O)N(C)C)C[C@@H]2c3cccc4c3c(cn4C)C[C@H]21	7.27
CC(C)n1cc2c3c(cccc31)C1CC(C(=O)NC3CCCCC3)CN(C)C1C2 (stereo not drawn)	7.51
COc1ccc2c(c1)c(CCN)cn2C(C)C	5.14
